- target.or.system: Estrogen receptor (Homo sapiens) (UniProt P03372)
- Sequence (P03372 whole entry, looked up): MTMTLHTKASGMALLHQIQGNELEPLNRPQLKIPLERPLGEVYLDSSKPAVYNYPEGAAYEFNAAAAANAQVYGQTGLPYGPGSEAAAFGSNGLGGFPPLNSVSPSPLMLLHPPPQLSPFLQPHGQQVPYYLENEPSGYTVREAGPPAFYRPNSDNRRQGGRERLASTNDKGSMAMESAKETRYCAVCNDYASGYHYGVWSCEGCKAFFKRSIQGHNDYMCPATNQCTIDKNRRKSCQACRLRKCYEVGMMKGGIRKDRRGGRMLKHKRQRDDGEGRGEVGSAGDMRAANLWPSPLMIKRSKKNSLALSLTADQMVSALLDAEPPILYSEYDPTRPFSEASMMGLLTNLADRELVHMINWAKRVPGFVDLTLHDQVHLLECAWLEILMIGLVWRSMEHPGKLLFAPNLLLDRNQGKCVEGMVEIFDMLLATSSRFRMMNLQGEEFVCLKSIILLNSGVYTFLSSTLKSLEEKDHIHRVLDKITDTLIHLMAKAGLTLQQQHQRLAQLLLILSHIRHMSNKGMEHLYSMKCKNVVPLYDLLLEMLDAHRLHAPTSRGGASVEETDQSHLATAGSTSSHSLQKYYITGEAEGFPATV
- run.description: OT_ER_ERaERa_1440: Odyssey Thera (OT) 24-hour HEK293T Protein-Complementation Assay for Estrogen Receptor-alpha/-alpha Homodimer (AID 2283349);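 also: hits raise fluorescence above DMSO for agonists and antagonists alike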
- Procedure: OT_ER_ERaERa_1440 is a cell-based assay that uses HEK293T, a human kidney cell line, with measurements taken at 24 hours after chemical dosing in a 384-well plate.OT_ER_ERaERa_1440 is one of one assay component(s) measured or calculated from the OT_ER_ERaERa_1440 assay. […] This assay endpoint, OT_ER_ERaERa_1440, was analyzed in the positive analysis fitting direction relative to DMSO as the negative control and baseline of activity. […]
Calls of active or inactive are those of the source. The calls were made as follows: active = hit-call score of the fitted dose curve at least 0.9, where 1 is the maximum; inconclusive = response in the unintended direction; inactive = score below 0.9.
Outcome codes: Y (active), N (inactive)

# molecule, classification
records = [
    ("CCCCC(CC)COP(=O)(Oc1ccccc1)Oc1ccccc1 (stereo unspecified)", "N"),
    ("COCCOCCO", "N"),
    ("CCOS(=O)(=O)OCC", "N"),
    ("CCOC(=O)c1ccccc1C(=O)OCC", "N"),
    ("CC(Cc1ccc(OCC(=O)O)cc1)NCC(O)c1csc(C(F)(F)F)n1 (stereo unspecified)", "N"),
    ("O=C(O)CF", "N"),
    ("Cc1ccc(O)cc1C", "N"),
    ("OCC1CO1 (stereo unspecified)", "N"),
    ("Cc1ccc(N)cc1N", "N"),
    ("c1ccc(OP(Oc2ccccc2)Oc2ccccc2)cc1", "N"),
    ("CCOP(=S)(OCC)SCSCC", "N"),
    ("O=[N+]([O-])c1ccccc1", "N"),
    ("c1ccc2c(c1)sc1ccccc12", "N"),
    ("COC(N)=O", "N"),
    ("ClC(Cl)c1ccccc1", "N"),
    ("ClC1=C(Cl)C2(Cl)C3C(Cl)C(Cl)CC3C1(Cl)C2(Cl)Cl (stereo unspecified)", "N"),
    ("CCCCc1ccc(O)cc1", "Y"),
    ("O=S(=O)(c1ccc(O)cc1)c1ccc(O)cc1", "Y"),
    ("O=S1(=O)OCC2C(CO1)C1(Cl)C(Cl)=C(Cl)C2(Cl)C1(Cl)Cl (stereo unspecified)", "N"),
    ("O=P1(N(CCCl)CCCl)NCCCO1 (stereo unspecified)", "N"),
    ("O=P(OCC(Br)CBr)(OCC(Br)CBr)OCC(Br)CBr (stereo unspecified)", "N"),
    ("CC(Cl)(Cl)C(=O)O", "N"),
    ("Cc1cccc(N)c1", "N"),
    ("O=c1ssc(Cl)c1Cl", "N"),
    ("Nc1ccc(Cl)cc1", "N"),
    ("CCOc1ccc(C(C)(C)COCc2cccc(Oc3ccccc3)c2)cc1", "N"),
    ("CCCN(CCC)c1c([N+](=O)[O-])cc(C(C)C)cc1[N+](=O)[O-]", "Y"),
    ("CCOC(=O)c1ccccc1N", "N"),
    ("c1nc[nH]n1", "N"),
    ("O=C(O)C1C(C(=O)O)C2(Cl)C(Cl)=C(Cl)C1(Cl)C2(Cl)Cl (stereo unspecified)", "N"),
    ("CCCCOCCOP(=O)(OCCOCCCC)OCCOCCCC", "N"),
]

* * *

- Read-out: Tissue plasminogen activator (tPA), PLAT (gene 5327)
- run.description: BSK_BE3C_tPA: BioMAP Diversity Plus: BE3C Assay for Tissue plasminogen activator (tPA) Biomarker Activity (AID 2283041);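 as to Outcome: tPA level quantified by ELISA one day after compound addition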
- applied.conditions: primary human bronchial epithelial cells; actives raise or lower the signal
Calls of active or inactive are those of the source. Rule for the calls: active = hit-call score of the fitted dose curve at least 0.9, where 1 is the maximum; inactive = score below 0.9.
Outcome codes: active, inactive

# compound, classification
rows = [
    ("CC(Cc1ccc(OCC(=O)O)cc1)NCC(O)c1csc(C(F)(F)F)n1 (stereo not drawn)", "inactive"),
    ("O=C(O)C(F)(OC(F)(F)C(F)(F)C(F)(F)F)C(F)(F)F (stereo not drawn)", "inactive"),
    ("CCOc1ccc(C(C)(C)COCc2cccc(Oc3ccccc3)c2)cc1", "active"),
    ("c1ccc2c(c1)sc1ccccc12", "inactive"),
    ("CCCCN(CCCC)SN(C)C(=O)Oc1cccc2c1OC(C)(C)C2", "inactive"),
    ("COP(=O)(O)OC", "inactive"),
    ("N#Cc1c(-c2ccc(Cl)cc2)[nH]c(C(F)(F)F)c1Br", "inactive"),
    ("O=[N+]([O-])c1ccccc1", "inactive"),
    ("Nc1ccc([N+](=O)[O-])cc1Cl", "inactive"),
    ("CCOP(=S)(OCC)SCS(=O)(=O)CC", "inactive"),
    ("OCC1CO1 (stereo not drawn)", "inactive"),
    ("FC(F)(F)C(F)(C(F)(F)F)C(F)(F)C(F)(F)CC1CO1 (stereo not drawn)", "inactive"),
    ("CCCCc1ccccc1", "inactive"),
]

* * *

- Read-out: Plasminogen Activator Inhibitor-1 (PAI1), SERPINE1 (gene 5054)
- run.description: BSK_BF4T_PAI1: BioMAP Diversity Plus: BF4T Assay for Plasminogen Activator Inhibitor-1 (PAI1) Biomarker Activity (AID 2284273)
- applied.conditions: primary human bronchial epithelial cells with fibroblasts
The source made the active and inactive calls. How the source made its calls: active means hit-call score of the fitted dose curve at least 0.9, where 1 is the maximum; inactive means score below 0.9.
reported.endpoint: outcome

# compound, reported.endpoint, result
measured = [
    ("FC(F)(F)C(F)(C(F)(F)F)C(F)(F)C(F)(F)CC1CO1 (stereo not drawn)", "outcome", "inactive"),
    ("C=CC(=O)OCC(F)(F)C(F)F", "outcome", "inactive"),
    ("OCC(F)(F)OC(F)(F)C(F)(F)OC(F)(F)C(F)(F)OC(F)(F)CO", "outcome", "inactive"),
]

* * *

- run.description: BSK_LPS_SRB: Viability Assessment in the BioMAP Diversity Plus: LPS Assay (AID 2283079);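 also: total protein by sulforhodamine B absorbance as a cytotoxicity measure; measured one day after compound addition; fitted in both directions against DMSO so loss or gain of signal counts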
- applied.conditions: primary human HUVEC with PBMC
- Method: BSK_LPS is a cell-based, multiplexed-readout assay that uses umbilical vein endothelium and peripheral blood mononuclear cells, a human vascular primary cell co-culture, with measurements taken at 24 hours after chemical dosing in a 96-well plate.BSK_LPS_SRB is an assay component measured in the BSK_LPS assay. It measures 0.1% sulforhodamine related to cell death using Sulforhodamine staining technology.Data from the assay component BSK_LPS_SRB was analyzed into 1 assay endpoint. […]
The source made the active and inactive calls. How the source made its calls: active means hit-call score of the fitted dose curve at least 0.9, where 1 is the maximum; inactive means score below 0.9.
Outcome codes: 1 for active, -1 for inactive

# compound, classification
measured = [
    ("CC(C)Nc1ccc(Nc2ccccc2)cc1", 1),
    ("ClC1=C(Cl)C2(Cl)C3C(Cl)C(Cl)CC3C1(Cl)C2(Cl)Cl (stereo not drawn)", 1),
    ("OCC(F)(F)OC(F)(F)C(F)(F)OC(F)(F)C(F)(F)OC(F)(F)F", -1),
    ("OCC1CO1 (stereo not drawn)", -1),
    ("O=S(=O)(F)C(F)(F)C(F)(F)C(F)(F)C(F)(F)C(F)(F)C(F)(F)C(F)(F)C(F)(F)F", -1),
    ("O=C(O)C(Cl)Cl", -1),
    ("CCCCC(CC)COP(=O)(Oc1ccccc1)Oc1ccccc1 (stereo not drawn)", 1),
    ("COC(=O)C(F)(F)C(F)(F)OC(F)(C(F)(F)F)C(F)(F)OC(F)=C(F)F (stereo not drawn)", -1),
    ("CC(C)(C)c1ccc(O)cc1", -1),
    ("CC(Cc1ccc(OCC(=O)O)cc1)NCC(O)c1csc(C(F)(F)F)n1 (stereo not drawn)", -1),
    ("CCCCN(CCCC)N=O", -1),
    ("COP(=O)(CCC(=O)NCO)OC", -1),
    ("c1nc[nH]n1", -1),
    ("O=P1(N(CCCl)CCCl)NCCCO1 (stereo not drawn)", -1),
    ("O=[N+]([O-])c1ccccc1", -1),
    ("c1ccc2c(c1)sc1ccccc12", -1),
    ("C=CC(=O)OCC(CC)(COC(=O)C=C)COC(=O)C=C", 1),
    ("COP(=O)(O)OC", -1),
    ("CCOP(=S)(OCC)SCS(=O)(=O)CC", -1),
    ("CCCCC(CC)COC(=O)c1c(Br)c(Br)c(Br)c(Br)c1C(=O)OCC(CC)CCCC (stereo not drawn)", -1),
    ("CC(C)(C)c1ccccc1OP(=O)(Oc1ccccc1)Oc1ccccc1", 1),
    ("O=[N+]([O-])c1ccc(Cl)c(Cl)c1", -1),
    ("CCOP(=S)(OCC)SCSc1ccc(Cl)cc1", -1),
    ("FC(F)(F)C(F)(C(F)(F)F)C(F)(F)C(F)(F)CC1CO1 (stereo not drawn)", -1),
    ("OCC(F)(F)OC(F)(F)C(F)(F)OC(F)(F)CO", -1),
    ("Nc1ccc([N+](=O)[O-])cc1Cl", -1),
    ("O=C(O)C=CC(F)(C(F)(F)F)C(F)(F)F", -1),
    ("O=P(OCC(Br)CBr)(OCC(Br)CBr)OCC(Br)CBr (stereo not drawn)", -1),
    ("Nc1ccc2ccccc2c1", -1),
    ("CC(Cl)CN(C)C (stereo not drawn)", -1),
    ("O=S1(=O)OCC2C(CO1)C1(Cl)C(Cl)=C(Cl)C2(Cl)C1(Cl)Cl (stereo not drawn)", -1),
    ("O=C(O)C(F)(F)OC(F)(F)C(F)(F)OC(F)(F)C(=O)O", -1),
    ("O=C(O)C1C(C(=O)O)C2(Cl)C(Cl)=C(Cl)C1(Cl)C2(Cl)Cl (stereo not drawn)", -1),
    ("N#Cc1cc([N+](=O)[O-])ccc1N", -1),
    ("CCNc1nc(Cl)nc(NC(C)(C)C)n1", -1),
    ("CCCCN(CCCC)SN(C)C(=O)Oc1cccc2c1OC(C)(C)C2", 1),
    ("CC(O)C(F)(F)C(F)(F)F (stereo not drawn)", -1),
    ("CCCCOCCOP(=O)(OCCOCCCC)OCCOCCCC", -1),
    ("CCOP(=S)(OCC)SCSCC", -1),
    ("O=P(Oc1ccccc1)(Oc1ccccc1)Oc1ccccc1", 1),
    ("CCCCc1ccccc1", -1),
    ("CN(C)C(=O)Cl", -1),
    ("O=C(O)C(F)(F)C(F)(F)C(=O)O", -1),
    ("CCOc1ccc(C(C)(C)COCc2cccc(Oc3ccccc3)c2)cc1", -1),
    ("Cc1c([N+](=O)[O-])cc2c(c1[N+](=O)[O-])C(C)(C)CC2(C)C", -1),
    ("O=C(O)C(F)(OC(F)(F)C(F)(F)C(F)(F)F)C(F)(F)F (stereo not drawn)", -1),
    ("CCC(C)(C)c1ccc(O)cc1", -1),
    ("[N-]=[N+]=[N-]", -1),
]
